Each recorded value in this set is attributed to ChEMBL document CHEMBL3259753.

- EXPERIMENTAL_DETAILS: Cytotoxicity against human HepG2.2.15 cells by MTT assay
- Format: cell-based, HepG2 2.2.15
Known CC50 of a selection of compounds
State the answer as a number, implicitly in µM.

Below are worked cases with known answers.
# QUERY_SMILES, ENDPOINT_UNIT, CC50
records = [
    ("C=C1CC[C@@H]2[C@](C)(COC(=O)c3cccnc3OC)[C@H](O)CC[C@@]2(C)[C@@H]1/C=C/C1=CCOC1=O", "µM", 1340),
    ("C=C1CC[C@@H]2[C@](C)(COC(C)=O)[C@H](OC(C)=O)CC[C@@]2(C)[C@@H]1/C=C/C1=CCOC1=O", "µM", 757),
    ("C=C1CC[C@@H]2[C@](C)(COC(=O)CCCC)[C@H](OC(=O)CCCC)CC[C@@]2(C)[C@@H]1C/C=C1\\C=COC1=O", "µM", 757),
    ("C=C1CC[C@@H]2[C@](C)(CO)[C@H](OC(C)=O)CC[C@@]2(C)[C@@H]1C/C=C1\\C=COC1=O", "µM", 872),
    ("C=C1CC[C@@H]2[C@](C)(COC(=O)c3cccs3)[C@H](O)CC[C@@]2(C)[C@@H]1C/C=C1\\C=COC1=O", "µM", 2470),
]

input: Which CC50 is listed for "C=C1CC[C@@H]2[C@](C)(CO)[C@H](O)CC[C@@]2(C)[C@@H]1/C=C/C1=CCOC1=O" ?
output: 197

input: Which CC50 is listed for "C=C1CC[C@@H]2[C@](C)(COC(C)=O)[C@H](O)CC[C@@]2(C)[C@@H]1/C=C/C1=CCOC1=O" ?
output: 225

input: Which CC50 is listed for "C=C1CC[C@@H]2[C@](C)(CO)[C@H](OC(=O)/C=C/c3cc(OC)c(OC)c(OC)c3)CC[C@@]2(C)[C@@H]1C/C=C1\C=COC1=O" ?
output: 211

input: Which CC50 is listed for "C=C1CC[C@@H]2[C@](C)(COC(=O)/C=C/c3ccccc3)[C@H](O)CC[C@@]2(C)[C@@H]1C/C=C1\C=COC1=O" ?
output: 271

input: Which CC50 is listed for "C=C1CC[C@@H]2[C@](C)(COC(=O)c3cccs3)[C@H](OC(=O)c3cccs3)CC[C@@]2(C)[C@@H]1C/C=C1\C=COC1=O" ?
output: 1370

input: Which CC50 is listed for "C=C1CC[C@@H]2[C@](C)(CO)[C@H](O)CC[C@@]2(C)[C@@H]1C/C=C(/C(=O)O)[C@H](O)CO" ?
output: 182

input: Which CC50 is listed for "C=C1CC[C@@H]2[C@](C)(COC(=O)c3ccccc3)[C@H](O)CC[C@@]2(C)[C@@H]1C/C=C1\C=COC1=O" ?
output: 82

input: Which CC50 is listed for "C=C1CC[C@@H]2[C@](C)(COC(=O)c3cccnc3)[C@H](O)CC[C@@]2(C)[C@@H]1/C=C/C1=CCOC1=O" ?
output: 113

input: Which CC50 is listed for "C=C1CC[C@@H]2[C@](C)(COC(=O)CCC(=O)O)[C@H](OC(=O)CCC(=O)O)CC[C@@]2(C)[C@@H]1C/C=C1\C=COC1=O" ?
output: 32

input: Which CC50 is listed for "C=C1CC[C@@H]2[C@](C)(COC(=O)/C=C/c3cc(OC)c(OC)c(OC)c3)[C@H](O)CC[C@@]2(C)[C@@H]1C/C=C1\C=COC1=O" ?
output: 325

input: Which CC50 is listed for "C=C1CC[C@@H]2[C@](C)(COC(=O)c3cccs3)[C@H](O)CC[C@@]2(C)[C@@H]1/C=C/C1=CCOC1=O" ?
output: 557

input: Which CC50 is listed for "C=C1CC[C@@H]2[C@](C)(C=O)[C@H](O)CC[C@@]2(C)[C@@H]1/C=C/C1=CCOC1=O" ?
output: 122

input: Which CC50 is listed for "C=C1CC[C@@H]2[C@](C)(CO)[C@H](OC(=O)/C=C/c3ccccc3)CC[C@@]2(C)[C@@H]1C/C=C1\C=COC1=O" ?
output: 179
